Just for reference, patent US9745324B2 is where these values come from.

# experimentalSystem: soluble human BACE1 catalytic domain (Homo sapiens (Human), UniProt P56817)
# Sequence (P56817 75-416): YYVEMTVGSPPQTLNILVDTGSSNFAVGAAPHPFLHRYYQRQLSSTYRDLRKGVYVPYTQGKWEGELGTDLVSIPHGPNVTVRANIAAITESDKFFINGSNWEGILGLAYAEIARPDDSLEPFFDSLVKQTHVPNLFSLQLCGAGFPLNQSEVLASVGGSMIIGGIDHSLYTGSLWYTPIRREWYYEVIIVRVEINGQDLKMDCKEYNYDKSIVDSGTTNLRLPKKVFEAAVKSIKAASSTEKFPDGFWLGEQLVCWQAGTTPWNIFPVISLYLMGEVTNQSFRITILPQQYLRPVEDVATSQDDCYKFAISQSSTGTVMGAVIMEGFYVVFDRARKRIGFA
pKi: −log10 of the molar value.
Please use class 1 whenever pKi is not below 7, and class 0 whenever it is.

Say whether "CN1C[C@@](C)(c2cc(OCc3ccc(C#N)cc3)ccc2F)NC(=N)C(C)(C)S1(=O)=O" shows pKi of 7 or more. class 0

Say whether "CN1C[C@@](C)(c2cc(NC(=O)c3ncc(Cl)cc3F)ccc2F)NC(=N)C(C)(C)S1(=O)=O" shows pKi of 7 or more. class 1

Say whether "Cc1nc(C(=O)Nc2ccc(F)c([C@]3(C)CN(C)S(=O)(=O)C(C)(C)C(=N)N3)c2)c(C)o1" shows pKi of 7 or more. class 0

Say whether "CN1C[C@@](C)(c2cc(NC(=O)c3ccn(C(F)F)n3)ccc2F)NC(=N)C(C)(C)S1(=O)=O" shows pKi of 7 or more. class 1

Say whether "Cc1cc(C(=O)Nc2ccc(F)c([C@]3(C)CN(C)S(=O)(=O)C(C)(C)C(=N)N3)c2)no1" shows pKi of 7 or more. class 0

Say whether "CN1C[C@@](C)(c2cc(NC(=O)CC3CC3)ccc2F)NC(=N)C(C)(C)S1(=O)=O" shows pKi of 7 or more. class 0

Say whether "CC(=O)Nc1ccc(F)c([C@]2(C)CN(C)S(=O)(=O)C(C)(C)C(=N)N2)c1" shows pKi of 7 or more. class 0

Say whether "CN1C[C@@](C)(c2cc(Nc3nccn4ccnc34)ccc2F)NC(=N)C(C)(C)S1(=O)=O" shows pKi of 7 or more. class 0

Say whether "Cc1cc(C(=O)Nc2ccc(F)c([C@]3(C)CN(C)S(=O)(=O)C(C)(C)C(=N)N3)c2)on1" shows pKi of 7 or more. class 0

Say whether "CN1C[C@@](C)(c2cc(NC(=O)c3ccccn3)ccc2F)NC(=N)C(C)(C)S1(=O)=O" shows pKi of 7 or more. class 0

Say whether "Cc1cc(C#N)cnc1C(=O)Nc1ccc(F)c([C@]2(C)CN(C)S(=O)(=O)C(C)(C)C(=N)N2)c1" shows pKi of 7 or more. class 1

Say whether "COc1cnc2c(Nc3ccc(F)c([C@]4(C)CN(C)S(=O)(=O)C(C)(C)C(=N)N4)c3)nccc2c1" shows pKi of 7 or more. class 0

Say whether "CN1C[C@@](C)(c2cc(Nc3nccc4cc(C#N)cnc34)ccc2F)NC(=N)C(C)(C)S1(=O)=O" shows pKi of 7 or more. class 1

Say whether "CN1C[C@@](C)(c2cc(NC(=O)c3cn4ccc(C#N)cc4n3)ccc2F)NC(=N)C(C)(C)S1(=O)=O" shows pKi of 7 or more. class 0

###

# experimentalSystem: purified human autoBACE-2 (Homo sapiens, UniProt Q9Y5Z0)
# Sequence (Q9Y5Z0 63-518 limits assumed): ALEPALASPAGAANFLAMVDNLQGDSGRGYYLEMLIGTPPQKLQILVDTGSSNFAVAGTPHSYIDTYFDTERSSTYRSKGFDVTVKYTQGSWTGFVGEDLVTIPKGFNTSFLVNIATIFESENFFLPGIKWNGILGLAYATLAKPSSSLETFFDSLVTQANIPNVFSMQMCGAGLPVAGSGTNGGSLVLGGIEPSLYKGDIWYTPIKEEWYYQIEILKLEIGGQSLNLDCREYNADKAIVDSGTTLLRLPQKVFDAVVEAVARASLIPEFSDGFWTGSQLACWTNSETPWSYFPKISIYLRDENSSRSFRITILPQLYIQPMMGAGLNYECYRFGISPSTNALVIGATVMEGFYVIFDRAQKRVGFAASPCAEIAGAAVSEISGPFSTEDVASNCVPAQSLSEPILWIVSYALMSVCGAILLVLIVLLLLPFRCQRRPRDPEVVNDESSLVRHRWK
# methodSummary: BACE-2 Assay (BACE-HTRF assay)
# Assay type: biochemical
# conditionSummary: Ki calculated from IC50 using the Cheng-Prusoff equation; QSY7-[…]-Eu-amide substrate, pH 5.0; read-out: BACE2 Ki
Checkbox rule: Ki lower than 200 nM = met; Ki not lower than 200 nM = not met.

Threshold test, Ki < 200 nM: "CN1C[C@@](C)(c2cc(Nc3nccc4cc(Br)cnc34)ccc2F)NC(=N)C(C)(C)S1(=O)=O" met

Threshold test, Ki < 200 nM: "CN1C[C@@](C)(c2cc(Nc3nccc4cc(C#N)cnc34)ccc2F)NC(=N)C(C)(C)S1(=O)=O" met

Threshold test, Ki < 200 nM: "COc1cnc2c(Nc3ccc(F)c([C@]4(C)CN(C)S(=O)(=O)C(C)(C)C(=N)N4)c3)nccc2c1" not met

Threshold test, Ki < 200 nM: "CN1C[C@@](C)(c2cc(OCc3ccc(C#N)cc3)ccc2F)NC(=N)C(C)(C)S1(=O)=O" not met

Threshold test, Ki < 200 nM: "CN1C[C@@](C)(c2cc(Nc3nccn4ccnc34)ccc2F)NC(=N)C(C)(C)S1(=O)=O" not met

###

Assignment: determine reported pKi for the given compounds.
Reminder that pKi means the negative base-10 logarithm of the concentration expressed in mol/L.

The recorded pKi with soluble human BACE1 catalytic domain (Homo sapiens (Human), UniProt P56817) for "CO[C@H](C)C(=O)Nc1ccc(F)c([C@]2(C)CN(C)S(=O)(=O)C(C)(C)C(=N)N2)c1" was 5.33

The recorded pKi with soluble human BACE1 catalytic domain (Homo sapiens (Human), UniProt P56817) for "CN1C[C@@](C)(c2cc(NC(=O)c3cnccn3)ccc2F)NC(=N)C(C)(C)S1(=O)=O" was 6.58

The recorded pKi with soluble human BACE1 catalytic domain (Homo sapiens (Human), UniProt P56817) for "COCC(=O)Nc1ccc(F)c([C@]2(C)CN(C)S(=O)(=O)C(C)(C)C(=N)N2)c1" was 6.12

The recorded pKi with soluble human BACE1 catalytic domain (Homo sapiens (Human), UniProt P56817) for "CN1C[C@@](C)(c2cc(Nc3nccc4cc(Br)cnc34)ccc2F)NC(=N)C(C)(C)S1(=O)=O" was 7.74

###

# experimentalSystem: purified human autoBACE-2 (Homo sapiens, UniProt Q9Y5Z0)
# methodSummary: BACE-2 Assay (BACE-HTRF assay)
# Assay type: biochemical
# conditionSummary: Ki calculated from IC50 using the Cheng-Prusoff equation; QSY7-EISEVNLDAEFC-Eu-amide substrate, pH 5.0; read-out: BACE2 Ki
# Experimental: DMSO is present at 5% final concentration in the assay. Following laser excitation of sample wells at 320 nm, the fluorescence signal at 620 nm is collected for 400 ms following a 50 μs delay on a RUBYstar HTRF plate reader (BMG Labtechnologies). Raw RFU data is normalized to maximum (1.0 nM BACE/DMSO) and minimum (no enzyme/DMSO) RFU values. […] The Ki values are calculated from the IC50 using the Cheng-Prusoff equation.
Assignment: determine reported log10 of Ki for the given compounds.
Scale: decimal log of Ki, Ki in nM.

According to the records, this compound "CN1C[C@@](C)(c2cc(NC(=O)c3ncc(Cl)cc3F)ccc2F)NC(=N)C(C)(C)S1(=O)=O" displays log10 of Ki of 0.81

According to the records, this compound "C#CCOc1ccc(C(=O)Nc2ccc(F)c([C@]3(C)CN(C)S(=O)(=O)C(C)(C)C(=N)N3)c2)nc1" displays log10 of Ki of 2.29

According to the records, this compound "C#CCOc1cnc(C(=O)Nc2ccc(F)c([C@]3(C)CN(C)S(=O)(=O)C(C)(C)C(=N)N3)c2)cn1" displays log10 of Ki of 1.54

According to the records, this compound "Cc1cc(C#N)cnc1C(=O)Nc1ccc(F)c([C@]2(C)CN(C)S(=O)(=O)C(C)(C)C(=N)N2)c1" displays log10 of Ki of 1.45

According to the records, this compound "CN1C[C@@](C)(c2cc(NC(=O)c3ccn(C)n3)ccc2F)NC(=N)C(C)(C)S1(=O)=O" displays log10 of Ki of 1.62

According to the records, this compound "CN1C[C@@](C)(c2cc(NC(=O)c3ccc(C(F)(F)F)cn3)ccc2F)NC(=N)C(C)(C)S1(=O)=O" displays log10 of Ki of 2.06

###

Assignment: determine reported log10 Ki for the given compounds.
# experimentalSystem: purified human autoBACE-2 (Homo sapiens)
# methodSummary: BACE-2 Assay (BACE-HTRF assay)
# Assay type: biochemical
# conditionSummary: Ki calculated from IC50 using the Cheng-Prusoff equation; QSY7-EISEVNLDAEFC-Eu-amide substrate, pH 5.0; read-out: BACE2 Ki
Scale: decimal log of Ki, Ki in nM.

According to the records, this compound "COc1cnc(C(=O)Nc2ccc(F)c([C@]3(C)CN(C)S(=O)(=O)C(C)(C)C(=N)N3)c2)c(C)n1" displays log10 Ki of 1.77

According to the records, this compound "CN1C[C@@](C)(c2cc(NC(=O)c3cn4ccsc4n3)ccc2F)NC(=N)C(C)(C)S1(=O)=O" displays log10 Ki of 1.66

According to the records, this compound "CN1C[C@@](C)(c2cc(NC(=O)c3ccc(F)cn3)ccc2F)NC(=N)C(C)(C)S1(=O)=O" displays log10 Ki of 1.11

According to the records, this compound "CN1C[C@@](C)(c2cc(NC(=O)c3ccn(C(F)F)n3)ccc2F)NC(=N)C(C)(C)S1(=O)=O" displays log10 Ki of 0.78

According to the records, this compound "CN1C[C@@](C)(c2cc(NC(=O)c3cnsn3)ccc2F)NC(=N)C(C)(C)S1(=O)=O" displays log10 Ki of 1.40

According to the records, this compound "CN1C[C@@](C)(c2cc(NC(=O)c3cnc(OCCF)cn3)ccc2F)NC(=N)C(C)(C)S1(=O)=O" displays log10 Ki of 2.34

According to the records, this compound "CN1C[C@@](C)(c2cc(NC(=O)c3ccc(C#N)cn3)ccc2F)NC(=N)C(C)(C)S1(=O)=O" displays log10 Ki of 1.51

According to the records, this compound "CC(=O)Nc1ccc(F)c([C@]2(C)CN(C)S(=O)(=O)C(C)(C)C(=N)N2)c1" displays log10 Ki of 2.96

According to the records, this compound "COCCC(=O)Nc1ccc(F)c([C@]2(C)CN(C)S(=O)(=O)C(C)(C)C(=N)N2)c1" displays log10 Ki of 3.61

According to the records, this compound "COCC(=O)Nc1ccc(F)c([C@]2(C)CN(C)S(=O)(=O)C(C)(C)C(=N)N2)c1" displays log10 Ki of 2.09
